These entries and their values trace back to PubChem BioAssay (NCI).

Reported TGI by item:
# Test system: SNB-19 CNS
# experiment.description: NCI tumour cell line growth inhibition, 48 h

compound | TGI
CC(NC(=O)C(N)CC(=O)O)NC(=O)N1CCOCC1 (centres undefined) | > 100 µM
COc1cc([C@@H]2c3cc4c(cc3[C@H](OC(C)=O)[C@H]3COC(=O)[C@H]23)OCO4)cc(OC)c1OC | > 100 µM
O=c1[nH]c2ccc(CC(=S)N3CCN(c4ccccc4)CC3)cc2o1 | > 100 µM
COc1ccc(C(=O)C(Br)C(Br)C(=O)O)cc1 (centres undefined) | > 100 µM
C[C@@H](NC1CCC[C@@H]1O)c1ccccc1 (some centres undefined) | > 100 µM
O=S1c2ccccc2N=C(c2ccc(Cl)cc2)CC1c1cccs1 (centres undefined) | 45.2 µM
O=C(/C=C\Nc1ccccc1O)C(Cl)(Cl)Cl | > 100 µM
CC(=O)c1c(-c2ccccc2)c(-c2ccc(OCCN(C)C)cc2)n2ccccc12 | 40.4 µM
O=c1ccccc(-c2ccc(-c3ccco3)cc2)c1O | 22.9 µM
COc1cc(C)[nH]c(=O)c1CN1CCc2c(Cl)cc([C@H](OC)C3COC3)c(Cl)c2C1=O | > 100 µM
COc1ccccc1N1CCN(C(=O)c2ccc(NS(=O)(=O)c3cccc4cccnc34)cc2)CC1 | > 85.5 µM
Cc1ccc2c(N/N=C\c3ccco3)cc(C)nc2n1 | 24 µM
CC1(C)N=C(/C=N/O)C(C)(C)N1O | > 100 µM
O=c1[nH]c(Nc2cccc(Br)c2)nc2nc[nH]c12 | > 100 µM
CC(=N/NC(=S)N1CCCCC1)/C(C)=N\NC(=S)N1CCCCC1 | 3.54 µM
O=C(CCc1ccccc1CO)NCCc1ccccc1 | > 100 µM
CCOP(=O)(OCC)/C(C#N)=C/c1cccn1N(C)C | > 100 µM
CCN(CC)C(=O)CNC(=O)OC(C)(C)C | > 100 µM
C[Si](C)(C)/C=C\CCCN1C(=O)CCC1=O | > 100 µM
Clc1ccc2c(NCCNc3ccnc4cc(Cl)ccc34)ccnc2c1 | 50.2 µM
N#Cc1ccc(-c2nc3ccc(Cl)cc3[nH]2)cc1 | > 100 µM
O=C1/C=C/[C@@H](O)[C@@H]2C[C@@H](O)C[C@H]2/C=C/CCC[C@H](CO)O1 | > 100 µM
O=C(O)c1cc(O)c2c(c1)Cc1cccc(O)c1C2=O | 95.1 µM
c1ccc2c(c1)nnn2CNc1ccc(N2CCOCC2)cc1 | > 100 µM

----------
# System: LXFL 529 NSCLC
# experiment.description: NCI tumour cell line growth inhibition, 48 h
value.kind: TGI

molecule | value.kind | result
C=CCCC(C)N(C(=O)OC(C)(C)C)S(=O)(=O)c1ccc(C)cc1 (centres undefined) | TGI | > 100 µM
CCCCCCCC(=O)OCC1OC(n2cc(F)c(=O)[nH]c2=O)C(NC(=O)OCc2ccccc2)C(OC(=O)CCCCCCC)C1O (centres undefined) | TGI | > 100 µM
O=C(c1cc2c(C(F)(F)F)onc2c2ccccc12)C(F)(F)F | TGI | > 47 µM
C[C@]12CC(C#N)C(=O)C(O)=C1CC[C@@H]1C2CC[C@@]2(C)C1CC[C@@H]2O (some centres undefined) | TGI | > 100 µM
CC(=O)O[C@H]1CCC2[C@@H]3CCC4Nc5c(cnn5-c5ccccc5)C[C@]4(C)C3CC[C@@]21C (some centres undefined) | TGI | 58.5 µM
S=P(c1ccccc1)(c1ccccc1)C1(C2(P(=S)(c3ccccc3)c3ccccc3)CC2)CC1 | TGI | > 100 µM
O=C(O)CN(c1ccccc1)S(=O)(=O)c1ccc(Cl)cc1 | TGI | > 100 µM
CCOC(=O)CNC1C(NC(C)=O)C(OC)OC2COC(c3ccccc3)OC21 (centres undefined) | TGI | > 100 µM
CC(Oc1ccc(OCC2CCCCC2)cc1)C(=O)O (centres undefined) | TGI | > 100 µM
